- System: MS2 coat protein
- test-method-notes: apparent KD of MS2 coat protein; higher = weaker reporter binding
- condition-details: Eterna round: R107; input ligand: tryptophan 2.4 mM
Rule: apparent KD of MS2 coat protein of 40 nM or more gives Y; anything lower gives N.

// inclusive: apparent KD of MS2 coat protein at least 40 nM? input: AUACGGCGGUAAAAUCAGAGAGUAAAAGAUACCAGCAAUAAUAAAUGCCCUUGGCAGCUUCUGACAUGAGGAUCACCCAUGUAAA [theeternabot_exclusion_MS2_Theo_A_49]
N

Others:
Is reported apparent KD of MS2 coat protein greater than or equal to 40 nM here: CCGAACAUGAGGAUCACCCAUGUUAGGGAUACCAGCCCAGACAUGGGCCCUUGGCAGCUCUAUAGCUGACGAAAGUCAGCAUCGG [#14 SameState-TheophyllineA]
Y

GCCUCCAGCCGAAGGAGCGCUAGAAGGUGACAUGAGGAUCACCCAUGUGUGUGAUGUGGCUAGCAGGUAGGUCGCGGAGGAGGCA [Exclusion - Arginine B (Freestyle 22)] ?
Y

Now this one: ACAUGAGGAUCACCCAUGUAUGACUAUCCUCGAGGACCGGUACGGCCGCCACUCGAAGGAGUGGCUCGCGAGUGCGCACUUGCAA [5' end]
N

Please do the same for AAUUCCUCACAUGAGGAUCACCCAUGUGAAGGAGCGCCGAAUAAGGCAGGUAGGUCGCACAUGGAAACCGCUGCGAAAGCAGCAA [MAT - Exclusion Arginine A - Mod of Eli - D25] as well.
N
